B1: library; numbered along this chain (parent)
chain: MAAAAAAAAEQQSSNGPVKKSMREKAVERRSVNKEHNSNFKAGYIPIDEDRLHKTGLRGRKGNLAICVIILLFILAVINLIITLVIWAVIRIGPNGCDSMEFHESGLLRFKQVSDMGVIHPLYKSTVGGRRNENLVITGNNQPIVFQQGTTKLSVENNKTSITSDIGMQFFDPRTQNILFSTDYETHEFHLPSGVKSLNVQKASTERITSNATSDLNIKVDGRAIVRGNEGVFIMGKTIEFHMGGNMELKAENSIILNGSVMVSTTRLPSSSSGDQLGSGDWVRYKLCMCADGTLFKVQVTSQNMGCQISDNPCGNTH

- Variants of: B1
- test method notes: SGCB cell-surface expression functional score (HA stain, bin4 vs bin1, normalised to synonymous) (log10 ratio); higher = more cell-surface SGCB (functional)
Kindly note that classification relies on SGCB cell-surface expression functional score (log10) with these boundaries: LOW: < -0.2; MID: ≥ -0.2 and < 0.2; HIGH: ≥ 0.2

variant identifier | group
Q142E | MID
L108S | LOW
T55Y | MID
D215L | LOW
V18I | HIGH
K159P | LOW
A5V | MID
I69D | MID
D215T | LOW
A9P | MID
A2G | MID
A2F | LOW
R207N | MID
A203M | HIGH
R223W | MID
E230L | HIGH
Q308P | LOW
S154G | LOW
L75Q | MID
Q12Y | MID
K196N | MID
T55G | MID
A203Q | LOW
A88E | MID
R223S | MID
K124D | LOW
G167E | LOW
N246P | HIGH
I86G | LOW
N95S | MID
S154C | MID
N15P | HIGH
M100Q | LOW
N229G | HIGH
E230P | MID
H36A | HIGH
I78A | MID
I47G | HIGH
A5W | HIGH

The reported measurements were obtained from the supplement of paper PMC10266784.
